Recorded polymerase ribozyme fitness (log ratio) for the following variants
B1: TPR 5TU (parent)
chain: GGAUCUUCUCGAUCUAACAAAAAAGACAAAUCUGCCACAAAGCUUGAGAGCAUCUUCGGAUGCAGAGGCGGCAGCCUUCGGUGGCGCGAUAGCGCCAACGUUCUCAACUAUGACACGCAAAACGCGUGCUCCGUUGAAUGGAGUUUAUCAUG

variants of: B1; experiment: polymerase ribozyme fitness, log enrichment relative to wild type (log ratio); higher = more active; in vitro selection for triplet polymerase activity
Fewer inactive variants are shown than the library holds.

Example results:
# Mutation code, Measurement name, Measured
rows = [
    ("G62U G86C C95G C132U", "polymerase ribozyme fitness (log ratio)", "≤ -4.2"),
    ("A47C A60U G80U C93U", "polymerase ribozyme fitness (log ratio)", "≤ -4.2"),
    ("U53A U55A C79U A98U", "polymerase ribozyme fitness (log ratio)", "≤ -4.2"),
    ("C8U A66C C93U G124A", "polymerase ribozyme fitness (log ratio)", "≤ -4.2"),
    ("G42A G88C", "polymerase ribozyme fitness (log ratio)", "≤ -4.2"),
    ("A49U C103G", "polymerase ribozyme fitness (log ratio)", "≤ -4.2"),
    ("C38U U90G C95A", "polymerase ribozyme fitness (log ratio)", "≤ -4.2"),
    ("A23U C35G A73U G81A U109G", "polymerase ribozyme fitness (log ratio)", "≤ -4.2"),
    ("A20C C87A C116U", "polymerase ribozyme fitness (log ratio)", "≤ -4.2"),
    ("C14G A39U G58A U61G C85U C95U A107C G141C U146C", "polymerase ribozyme fitness (log ratio)", "≤ -4.2"),
]

Asked: Find the recorded polymerase ribozyme fitness (log ratio) belonging to A3G A49C C51U G59C C95U C131G and report it.
Given back: ≤ -4.2

Asked: A24C U53C C118U A142C ?
Given back: ≤ -4.2

Asked: C75U G84U ?
Given back: -2.45

Asked: C43U A49C C96A A107C A113U ?
Given back: ≤ -4.2

Asked: G50A C51U G74C U82C G140A U146G ?
Given back: ≤ -4.2

Asked: C10U C32U A49C U134C ?
Given back: ≤ -4.2

Asked: C8G C35U A40U C95U C149A ?
Given back: ≤ -4.2

Asked: A41G C57G C76U G94A A110G C116G U139G ?
Given back: -4.11

Asked: C63G G133U ?
Given back: -4.14

Asked: A52G A106G ?
Given back: -0.771

Asked: A41C C93U A97C U102G ?
Given back: ≤ -4.2

Asked: U53A C79A A150U ?
Given back: ≤ -4.2
